- study system: T1, Recombinant Human GFRα-1/GDNF Rα-1 Fc Chimera (human, UniProt P56159 25-429)
- T1 construct: Purchased Fc chimera; It was captured on protein A in Biacore and coated on the plate in ELISA; also called GFRα1-Fc; recombinant human GFRα1-Fc chimera, carrier-free; not shown: Fc part of a purchased Fc chimera
- T1 sequence (looked up): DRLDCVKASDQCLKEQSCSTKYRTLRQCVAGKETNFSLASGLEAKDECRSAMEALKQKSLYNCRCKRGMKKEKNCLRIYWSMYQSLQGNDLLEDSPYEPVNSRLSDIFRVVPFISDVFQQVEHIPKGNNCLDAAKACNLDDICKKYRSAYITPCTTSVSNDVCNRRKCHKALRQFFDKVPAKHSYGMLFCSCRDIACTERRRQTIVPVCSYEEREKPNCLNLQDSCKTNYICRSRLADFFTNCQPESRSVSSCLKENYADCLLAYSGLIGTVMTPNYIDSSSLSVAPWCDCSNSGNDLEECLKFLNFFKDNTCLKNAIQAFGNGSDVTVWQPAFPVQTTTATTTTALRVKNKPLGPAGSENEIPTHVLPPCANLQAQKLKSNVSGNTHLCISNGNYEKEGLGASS
- protocol summary: SPR (Biacore 2000), GFRα1-Fc captured on protein A, GDNFv as analyte, 1:1 Langmuir, 25 C

{"binder": "CHO-Δ31-GDNF (SEQ ID NO: 8) (ligand, N-glycosylated at N49 (numbering of mature GDNF), Expressed in CHO cells; also called CHO-Δ31-GDNFv; WT CHO Δ31-GDNFv) RGQRGKNRGCVLTAIHLNVTDLGLGYETKEELIFRYCSGSCDAAETTYDKILKNLSRNRRLVSDKVGQACCRPIAFDDDLSFLDDNLVYHILRKHSAKRCGCI", "Kd": "0.029 nM"}
{"binder": "CHO-Δ31-N38Q-K84A-R88K-R90K-D95E-GDNF (SEQ ID NO: 12) (ligand, N-glycosylated at N49 (numbering of mature GDNF), Expressed in CHO cells; also called Δ31-N38Q-KAKKE; GDNF variant 3) RGQRGKQRGCVLTAIHLNVTDLGLGYETKEELIFRYCSGSCDAAETTYDKILANLSKNKRLVSEKVGQACCRPIAFDDDLSFLDDNLVYHILRKHSAKRCGCI", "Kd": "0.029 nM"}
{"binder": "CHO-Δ31-N38Q-D95E-GDNF (SEQ ID NO: 9) (ligand, N-glycosylated at N49 (numbering of mature GDNF), Expressed in CHO cells; also called CHO-Δ31-N38Q-D95E-GDNFv; GDNF variant 2) RGQRGKQRGCVLTAIHLNVTDLGLGYETKEELIFRYCSGSCDAAETTYDKILKNLSRNRRLVSEKVGQACCRPIAFDDDLSFLDDNLVYHILRKHSAKRCGCI", "Kd": "0.03 nM"}
{"binder": "E. Coli-Δ31-N38Q-K84A-R88K-R90K-D95E-GDNF (SEQ ID NO: 12) (ligand, also called Δ31-N38Q-KAKKE; GDNF variant 3) RGQRGKQRGCVLTAIHLNVTDLGLGYETKEELIFRYCSGSCDAAETTYDKILANLSKNKRLVSEKVGQACCRPIAFDDDLSFLDDNLVYHILRKHSAKRCGCI", "Kd": "0.035 nM"}
{"binder": "E. Coli-Δ31-GDNF (SEQ ID NO: 8) (ligand, The NdeI start codon encodes a Met before R32; also called Delta-31 GDNF; Variant 1) RGQRGKNRGCVLTAIHLNVTDLGLGYETKEELIFRYCSGSCDAAETTYDKILKNLSRNRRLVSDKVGQACCRPIAFDDDLSFLDDNLVYHILRKHSAKRCGCI", "Kd": "0.044 nM"}
{"binder": "E. coli-Δ31-N38Q-D95E-GDNF (SEQ ID NO: 9) (ligand, also called GDNF variant 2; clone D9) RGQRGKQRGCVLTAIHLNVTDLGLGYETKEELIFRYCSGSCDAAETTYDKILKNLSRNRRLVSEKVGQACCRPIAFDDDLSFLDDNLVYHILRKHSAKRCGCI", "Kd": "0.047 nM"}

Origin of values: patent US20130324474A1
